Below, each entry is listed alongside its reported TGI.
Tested on: SK-OV-3
experimental_protocol: NCI-60 five-dose assay (ovarian cancer)
Type: cell-based, human
assay_context: 48 h, SRB
Report only the number, with the unit µM understood.

// known answers, use as guide
>  <molecule>
CCOc1ccccc1NC1=C(Cl)C(=O)c2nc(C)ccc2C1=O

>  <observed_measurement>
27.1

$$$$
>  <molecule>
COc1ccccc1NC1=C(Cl)C(=O)c2nc(C)ccc2C1=O

>  <observed_measurement>
27.5

$$$$
>  <molecule>
CCOc1ccc(NC2=C(Cl)C(=O)c3nc(C)ccc3C2=O)cc1

>  <observed_measurement>
30.1

$$$$

Shifting focus to the compound that follows.
Recorded TGI of `COc1cc(NC2=C(Cl)C(=O)c3nc(C)ccc3C2=O)cc(OC)c1` , please.
25.1
